System: Panc 05.04 cells (SF3b K700E mutant)
Assay: Cell proliferation and viability, CellTiter-Glo, 72 hours
Type: cell-based
Conditions: 72 h; PANC0504.1; -100% = cidal, 0% = static, 100% = uninhibited growth
Exercise: for every item that follows, state its recorded CTGlo-ATS Mean MinResponse % 72 h PANC0504.1.
One number for each entry, in %.

C/C(=C\c1cc(F)cc(N2CCOCC2)c1)[C@H]1OC(=O)C[C@H](O)CC[C@H](C)[C@@H](OC(=O)NCCN(C)C)/C=C/[C@@H]1C [Compound 242]	−92.786
C/C(=C\c1cccc(S(=O)(=O)N2CC(F)(F)C2)c1)[C@H]1OC(=O)C[C@H](O)CC[C@H](C)[C@@H](OC(=O)N2CCN(C)CC2)/C=C/[C@@H]1C [Compound 206]	−83.659

Here is the next item to consider.
Value lookup for CTGlo-ATS Mean MinResponse % 72 h PANC0504.1; key = CCNS(=O)(=O)c1cccc(/C=C(\C)[C@H]2OC(=O)CC(O)CCC(C)[C@@H](OC(=O)N3CCN(C)CC3)/C=C/[C@@H]2C)c1 (stereo in doubt) [Compound 210]
−96.896

---

System: Panc 05.04 cells (SF3b K700E mutant)
Assay: Cell proliferation and viability, CellTiter-Glo, 72 hours
Assay type: cell-based
Conditions: PANC0504.1 cells, 72 h; −100% cidal, 0% static, 100% maximal growth
Exam item: assign criterion met to entries whose CTGlo-ATS Mean MinResponse % 72 h PANC0504.1 is below -80% and criterion not met to entries at or above -80%. Note that a value of exactly -80% receives criterion not met.

C/C(=C\c1cc(F)cc(N2CCO[C@H](CO)C2)c1)[C@H]1OC(=O)C[C@H](O)CC[C@H](C)[C@@H](OC(=O)N2CCN(C)CC2)/C=C/[C@@H]1C [Compound 76]	criterion met
C/C(=C\c1cc(F)c2cn(CC3CC3)nc2c1)[C@H]1OC(=O)C[C@H](O)CC[C@H](C)[C@@H](OC(=O)N2CCN(C)CC2)/C=C/[C@@H]1C [Compound 99]	criterion not met
C/C(=C\c1cc(F)cc(N2C[C@@H](C)O[C@@H](C)C2)c1)[C@H]1OC(=O)C[C@H](O)CC[C@H](C)[C@@H](OC(=O)N2CCC(N3CCCCC3)CC2)/C=C/[C@@H]1C [Compound 16]	criterion met
C/C(=C\c1cc(C)cc(N2CCOCC2)c1)[C@H]1OC(=O)C[C@H](O)CC[C@H](C)[C@@H](OC(=O)N2CCN(C)CC2)/C=C/[C@@H]1C [Compound 18]	criterion met
COCCN1CCN(c2cc(F)cc(/C=C(\C)[C@H]3OC(=O)C[C@H](O)CC[C@H](C)[C@@H](OC(=O)N4CCN(C)CC4)/C=C/[C@@H]3C)c2)CC1=O [Compound 105]	criterion met
C/C(=C\c1cncc(Cl)c1)[C@H]1OC(=O)C[C@H](O)CC[C@H](C)[C@@H](OC(=O)N2CCN(C)CC2)/C=C/[C@@H]1C [Compound 46]	criterion not met

Strictly below -80%: is that where CTGlo-ATS Mean MinResponse % 72 h PANC0504.1 of C/C(=C\c1cc(F)cc(N2CCOCC2)c1)[C@H]1OC(=O)C[C@H](O)CC[C@H](C)[C@@H](OC(=O)N2CCN(C3CCCC3)CC2)/C=C/[C@@H]1C [Compound 27] sits?
criterion met

Does this molecule meet the criterion CTGlo-ATS Mean MinResponse % 72 h PANC0504.1 < -80%? C/C(=C\c1cc(F)c2nnn(CC3CC3)c2c1)[C@H]1OC(=O)C[C@H](O)CC[C@H](C)[C@@H](OC(=O)N2CCN(C)CC2)/C=C/[C@@H]1C [Compound 137]
criterion met

Item C/C(=C\c1cc(F)c2nn(C3CCOCC3)nc2c1)[C@H]1OC(=O)C[C@H](O)CC[C@H](C)[C@@H](OC(=O)N2CCN(C)CC2)/C=C/[C@@H]1C [Compound 141] : CTGlo-ATS Mean MinResponse % 72 h PANC0504.1 beneath -80%, strictly?
criterion met
